Test system: PBMC
Test: Immunosuppressive activity in human PBMC assessed as inhibition of LPS-stimulated IL2 production at 10 ug/mL after 18 to 24 hrs by ELISA
Type: functional
Calls of active or inactive are those of the source. The rule behind the calls is not given here.
REPORTED_PROPERTY: inhibition

- CC(=O)OC[C@]12[C@H](OC(C)=O)[C@H](OC(C)=O)[C@@H]3[C@@H](OC(C)=O)[C@@]14O[C@@]3(C)COC(=O)c1cccnc1CC[C@@](C)(O)C(=O)O[C@@H]([C@H](OC(C)=O)[C@@H]2OC(C)=O)[C@]4(C)O: inactive
- CC(=O)OC[C@]12[C@H](OC(C)=O)[C@H](OC(=O)c3cccnc3)[C@@H]3[C@@H](OC(C)=O)[C@@]14O[C@@]3(C)COC(=O)c1cccnc1C(C)C(C)C(=O)O[C@@H]([C@H](OC(C)=O)[C@@H]2OC(C)=O)[C@]4(C)O (stereo partly drawn): inactive
- CC(=O)OC[C@]12[C@H](OC(C)=O)[C@H](OC(C)=O)[C@@H]3[C@@H](OC(C)=O)[C@@]14O[C@@]3(C)COC(=O)c1cnccc1C(C)C(C)C(=O)O[C@@H]([C@H](OC(C)=O)[C@@H]2O)[C@]4(C)O (stereo partly drawn): inactive
